Tested on: Escherichia coli (10536 strain)
Assay: Antimicrobial efficacy, 15 seconds contact suspension assay (Examples 1 and 3)
Assay type: cell-based
Conditions: lowest concentration with complete kill after 15 seconds contact; active alone; upper boundary to the MBC
Assign MBC (Minimum Biocidal Concentration) to each entry below.
Give bare numbers, in % w/v.

Below are worked cases with known answers.
{"molecule": "Cc1cc(O)ccc1C(C)C [4-isopropyl-3-methylphenol]", "MBC (Minimum Biocidal Concentration), % w/v": 0.075}
{"molecule": "Cc1ccc(C(C)C)c(O)c1 [thymol, thymol (2-isopropyl-5-methylphenol)]", "MBC (Minimum Biocidal Concentration), % w/v": 0.05}
{"molecule": "Cc1cc(O)cc(C(C)C)c1 [3-isopropyl-5-methylphenol]", "MBC (Minimum Biocidal Concentration), % w/v": 0.05}

Next molecule, please.
Query :: Using the record for CC(C)=C1CCC(C)(O)CC1 (stereo not shown) [gamma-terpineol] , report its MBC (Minimum Biocidal Concentration).
Result :: 0.3

The reported numbers originate from patent US20140322076A1.
